Tested on: MPNST multicellular tumor spheroids, viability % test/control
measurement.notes: Anticancer human tumor MPNST cell line growth inhibition;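 further: spheroids exposed to agents for seven days after three days of growth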
test.settings: curve of first compound; second compound 100 µM
pIC50: −log10 of the molar value.

molecule	pIC50
CC(C)n1c(=O)n(C)c2cnc3cc(F)c(-c4ccc(OCCCN5CCCCC5)nc4)cc3c21 + Cn1nnc2c(C(N)=O)ncn2c1=O	< 5.00
COc1cc(C)[nH]c(=O)c1CN1CCc2c(Cl)cc(C(OC)C3COC3)c(Cl)c2C1=O (stereo not given) + Cn1nnc2c(C(N)=O)ncn2c1=O	< 5.00
CNCc1ccc(-c2cc(-c3nc(-c4ccc(S(=O)(=O)C(C)C)cc4)cnc3N)on2)cc1 + Cn1nnc2c(C(N)=O)ncn2c1=O	< 5.52
Cc1cc(C)c(CNC(=O)c2cc(-c3ccc(CN4CCOCC4)cc3)cc3c2cnn3C2CCCC2)c(=O)[nH]1 + Cn1nnc2c(C(N)=O)ncn2c1=O	< 5.00
[2H]c1nc(C)nc([2H])c1-c1cc(NC[C@@H](C)c2cccc3c(C(=O)NC)ccnc23)ncn1 + Cn1nnc2c(C(N)=O)ncn2c1=O	< 5.00

###

pIC50 values, listed per item
System: MPNST multicellular tumor spheroids, viability % test/control
measurement.notes: Anticancer human tumor MPNST cell line growth inhibition;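 further: spheroids exposed to agents for seven days after three days of growth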
test.settings: curve of first compound; second compound 31.6 µM
pIC50: −log10 of the molar value.

molecule	pIC50
Cc1cc(C)c(CNC(=O)c2cc(-c3ccc(CN4CCOCC4)cc3)cc3c2cnn3C2CCCC2)c(=O)[nH]1 + Cn1nnc2c(C(N)=O)ncn2c1=O	< 5.00
CC(C)n1c(=O)n(C)c2cnc3cc(F)c(-c4ccc(OCCCN5CCCCC5)nc4)cc3c21 + Cn1nnc2c(C(N)=O)ncn2c1=O	< 5.00
CNCc1ccc(-c2cc(-c3nc(-c4ccc(S(=O)(=O)C(C)C)cc4)cnc3N)on2)cc1 + Cn1nnc2c(C(N)=O)ncn2c1=O	< 5.52
COc1cc(C)[nH]c(=O)c1CN1CCc2c(Cl)cc(C(OC)C3COC3)c(Cl)c2C1=O (stereo unspecified) + Cn1nnc2c(C(N)=O)ncn2c1=O	< 5.00
Cc1sc2c(c1C)C(c1ccc(Cl)cc1)=NC(CC(=O)Nc1ccc(O)cc1)c1nnc(C)n1-2 (stereo unspecified) + Cn1nnc2c(C(N)=O)ncn2c1=O	< 5.52
[2H]c1nc(C)nc([2H])c1-c1cc(NC[C@@H](C)c2cccc3c(C(=O)NC)ccnc23)ncn1 + Cn1nnc2c(C(N)=O)ncn2c1=O	< 5.00

###

Test system: MPNST multicellular tumor spheroids, viability % test/control
measurement.notes: Anticancer human tumor MPNST cell line growth inhibition;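 further: spheroids exposed to agents for seven days after three days of growth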;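 on viability, T/C: luminescence signal used as surrogate for viable cell amount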
test.settings: second compound 30 pM; first compound 0.316 µM; stronger effect = lower value
viability, T/C strictly less than 70% = Satisfied. Otherwise Not satisfied.

compound	assigned.class
[2H]c1nc(C)nc([2H])c1-c1cc(NC[C@@H](C)c2cccc3c(C(=O)NC)ccnc23)ncn1 + COc1cc2c(cc1O)CCNC21CSC2c3c(OC(C)=O)c(C)c4c(c3C(COC1=O)N1C(O)C3Cc5cc(C)c(OC)c(O)c5C(C21)N3C)OCO4	Not satisfied
COc1ccc([C@@H](O)c2cc(-c3ncnc4cc(N5CCOCC5)ccc34)c(F)cc2Cl)nn1 + COc1cc2c(cc1O)CCNC21CSC2c3c(OC(C)=O)c(C)c4c(c3C(COC1=O)N1C(O)C3Cc5cc(C)c(OC)c(O)c5C(C21)N3C)OCO4	Satisfied
CC(C)n1c(=O)n(C)c2cnc3cc(F)c(-c4ccc(OCCCN5CCCCC5)nc4)cc3c21 + COc1cc2c(cc1O)CCNC21CSC2c3c(OC(C)=O)c(C)c4c(c3C(COC1=O)N1C(O)C3Cc5cc(C)c(OC)c(O)c5C(C21)N3C)OCO4	Not satisfied
COc1cc(C)[nH]c(=O)c1CN1CCc2c(Cl)cc(C(OC)C3COC3)c(Cl)c2C1=O (stereo not given) + COc1cc2c(cc1O)CCNC21CSC2c3c(OC(C)=O)c(C)c4c(c3C(COC1=O)N1C(O)C3Cc5cc(C)c(OC)c(O)c5C(C21)N3C)OCO4	Not satisfied
CC1COCCN1c1cc(-c2ccnn2C)c2ccnc(-c3ccn[nH]3)c2n1 (stereo not given) + COc1cc2c(cc1O)CCNC21CSC2c3c(OC(C)=O)c(C)c4c(c3C(COC1=O)N1C(O)C3Cc5cc(C)c(OC)c(O)c5C(C21)N3C)OCO4	Satisfied

###

Tested on: MPNST multicellular tumor spheroids, viability % test/control
measurement.notes: Anticancer human tumor MPNST cell line growth inhibition;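 further: spheroids exposed to agents for seven days after three days of growth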
test.settings: curve of first compound; second compound 1 µM
IC50 values, listed per item

compound	IC50
CC(C)n1c(=O)n(C)c2cnc3cc(F)c(-c4ccc(OCCCN5CCCCC5)nc4)cc3c21 + Cn1nnc2c(C(N)=O)ncn2c1=O	> 10 µM
CNCc1ccc(-c2cc(-c3nc(-c4ccc(S(=O)(=O)C(C)C)cc4)cnc3N)on2)cc1 + Cn1nnc2c(C(N)=O)ncn2c1=O	> 3 µM
[2H]c1nc(C)nc([2H])c1-c1cc(NC[C@@H](C)c2cccc3c(C(=O)NC)ccnc23)ncn1 + Cn1nnc2c(C(N)=O)ncn2c1=O	> 10 µM
COc1cc(C)[nH]c(=O)c1CN1CCc2c(Cl)cc(C(OC)C3COC3)c(Cl)c2C1=O (stereo not given) + Cn1nnc2c(C(N)=O)ncn2c1=O	> 10 µM
Cc1cc(C)c(CNC(=O)c2cc(-c3ccc(CN4CCOCC4)cc3)cc3c2cnn3C2CCCC2)c(=O)[nH]1 + Cn1nnc2c(C(N)=O)ncn2c1=O	> 10 µM

###

System: MPNST multicellular tumor spheroids, viability % test/control
measurement.notes: Anticancer human tumor MPNST cell line growth inhibition;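 further: spheroids exposed to agents for seven days after three days of growth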;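 on viability, T/C: luminescence signal used as surrogate for viable cell amount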
test.settings: second compound 0.3 µM; first compound 10 µM; stronger effect = lower value
viability, T/C values, listed per item

molecule	uom	viability, T/C
CC(C)n1c(=O)n(C)c2cnc3cc(F)c(-c4ccc(OCCCN5CCCCC5)nc4)cc3c21 + CC[C@@]1(O)C(=O)OCc2c1cc1n(c2=O)Cc2cc3c(CN(C)C)c(O)ccc3nc2-1	%	29.1
COc1cc(C)[nH]c(=O)c1CN1CCc2c(Cl)cc(C(OC)C3COC3)c(Cl)c2C1=O (centres undefined) + CC[C@@]1(O)C(=O)OCc2c1cc1n(c2=O)Cc2cc3c(CN(C)C)c(O)ccc3nc2-1	%	39.5
CC1COCCN1c1cc(-c2ccnn2C)c2ccnc(-c3ccn[nH]3)c2n1 (centres undefined) + CC[C@@]1(O)C(=O)OCc2c1cc1n(c2=O)Cc2cc3c(CN(C)C)c(O)ccc3nc2-1	%	17.5
Cc1cc(C)c(CNC(=O)c2cc(-c3ccc(CN4CCOCC4)cc3)cc3c2cnn3C2CCCC2)c(=O)[nH]1 + CC[C@@]1(O)C(=O)OCc2c1cc1n(c2=O)Cc2cc3c(CN(C)C)c(O)ccc3nc2-1	%	45.4

###

Tested on: MPNST multicellular tumor spheroids, viability % test/control
measurement.notes: Anticancer human tumor MPNST cell line growth inhibition; active = viability on the fitted dose curve at most 10% of control; inactive = the rest;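 further: spheroids exposed to agents for seven days after three days of growth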
test.settings: second compound 0.003 µM; first compound 1 µM
Labels: active, inactive

compound	assigned.class
COc1ccc([C@@H](O)c2cc(-c3ncnc4cc(N5CCOCC5)ccc34)c(F)cc2Cl)nn1 + COc1cc2c(cc1O)CCNC21CSC2c3c(OC(C)=O)c(C)c4c(c3C(COC1=O)N1C(O)C3Cc5cc(C)c(OC)c(O)c5C(C21)N3C)OCO4	active
CC1COCCN1c1cc(-c2ccnn2C)c2ccnc(-c3ccn[nH]3)c2n1 (centres undefined) + CC[C@@]1(O)C(=O)OCc2c1cc1n(c2=O)Cc2cc3c(CN(C)C)c(O)ccc3nc2-1	inactive
COc1ccc([C@@H](O)c2cc(-c3ncnc4cc(N5CCOCC5)ccc34)c(F)cc2Cl)nn1 + CC[C@@]1(O)C(=O)OCc2c1cc1n(c2=O)Cc2cc3c(CN(C)C)c(O)ccc3nc2-1	inactive
COc1cc(C)[nH]c(=O)c1CN1CCc2c(Cl)cc(C(OC)C3COC3)c(Cl)c2C1=O (centres undefined) + CC[C@@]1(O)C(=O)OCc2c1cc1n(c2=O)Cc2cc3c(CN(C)C)c(O)ccc3nc2-1	inactive
[2H]c1nc(C)nc([2H])c1-c1cc(NC[C@@H](C)c2cccc3c(C(=O)NC)ccnc23)ncn1 + CC[C@@]1(O)C(=O)OCc2c1cc1n(c2=O)Cc2cc3c(CN(C)C)c(O)ccc3nc2-1	inactive
Cc1cc(C)c(CNC(=O)c2cc(-c3ccc(CN4CCOCC4)cc3)cc3c2cnn3C2CCCC2)c(=O)[nH]1 + CC[C@@]1(O)C(=O)OCc2c1cc1n(c2=O)Cc2cc3c(CN(C)C)c(O)ccc3nc2-1	inactive
COc1cc(C)[nH]c(=O)c1CN1CCc2c(Cl)cc(C(OC)C3COC3)c(Cl)c2C1=O (centres undefined) + COc1cc2c(cc1O)CCNC21CSC2c3c(OC(C)=O)c(C)c4c(c3C(COC1=O)N1C(O)C3Cc5cc(C)c(OC)c(O)c5C(C21)N3C)OCO4	active
CC1COCCN1c1cc(-c2ccnn2C)c2ccnc(-c3ccn[nH]3)c2n1 (centres undefined) + COc1cc2c(cc1O)CCNC21CSC2c3c(OC(C)=O)c(C)c4c(c3C(COC1=O)N1C(O)C3Cc5cc(C)c(OC)c(O)c5C(C21)N3C)OCO4	active
[2H]c1nc(C)nc([2H])c1-c1cc(NC[C@@H](C)c2cccc3c(C(=O)NC)ccnc23)ncn1 + COc1cc2c(cc1O)CCNC21CSC2c3c(OC(C)=O)c(C)c4c(c3C(COC1=O)N1C(O)C3Cc5cc(C)c(OC)c(O)c5C(C21)N3C)OCO4	inactive
